Entries and their measured GI50 follow.
# Test system: UACC-257
# test: NCI tumour cell line growth inhibition, 48 h
Active and inactive are the calls of the source. Cut-off read from the data, not from the text of the source: active = GI50 up to about 1.1 µM and inactive = higher.
readout-label: GI50

O=C(OCC1OC2OC(c3ccccc3)(n3ccc4c([N+](=O)[O-])ccnc43)OC2C1OC(=O)c1ccccc1)c1ccccc1 (stereo not given)
> 100 µM (inactive)
O=[N+]([O-])c1ccc2c3c1[C@@H]1O[C@@H]1c1cccc(c1-3)[C@@H]1O[C@H]21
6.87 µM (inactive)
O=C1C=CC(=O)N1c1ccc(I)cc1
18 µM (inactive)
O=[N+]([O-])c1ccc(/C(Cl)=C/c2ccc(/C=C(\Cl)c3ccc([N+](=O)[O-])cc3[N+](=O)[O-])cc2)c([N+](=O)[O-])c1
> 100 µM (inactive)
O=C(CC(=O)CC(O)(C(F)(F)F)C(F)(F)F)CC(O)(C(F)(F)F)C(F)(F)F
> 10 µM (inactive)
CCCC/C=C1/CCC(CN(C)C)C1=O (stereo not given)
2.17 µM (inactive)
S=C(Nc1ccc(Cl)cc1)c1ccc(CN2CCCCC2)s1
10.6 µM (inactive)
CC1(C)C(=O)N(O)C(C)(C)N1O
> 10 µM (inactive)
O/N=C1/CCCC/C1=C/C=C/c1ccccc1
24.9 µM (inactive)
COc1cc2c(cn1)[nH]c1ccccc12
85.1 µM (inactive)
O=c1[nH]cnc2c1ncn2[C@@H]1C[C@H]1CO
> 100 µM (inactive)
C/C(=C/C(=O)Nn1c(Cc2ccccc2)n[nH]c1=O)C(=O)O
> 100 µM (inactive)
O=C1Sc2cc3ccccc3cc2C(=O)Sc2cc3ccccc3cc21
27.8 µM (inactive)
COC(=O)C1=C(OC(=O)/C(=C/c2ccc(Cl)cc2)c2ccc(Cl)cc2)C(C(=O)OC)[C@@]2(O)[C@@H](C(=O)OC)[C@H](C)C[C@@H]1[C@@H]2C(=O)OC (stereo not given in full)
> 83.6 µM (inactive)
COC(=O)C1(C(=O)OC)CC2=C(S(=O)(=O)c3ccccc3)C[C@H](C#N)[C@H]2C1
> 100 µM (inactive)
COC1(C(C)(C)C)C=C(C(C)(C)C)P(=O)(O)O1 (stereo not given)
> 100 µM (inactive)
NC(C(=O)O)C(N)C(=O)O (stereo not given)
> 100 µM (inactive)
CCC1([N+](=O)[O-])CN(N=O)C1
> 100 µM (inactive)
CN(Cc1c[n+]([O-])c2nc(N)nc(N)c2n1)c1ccc(C(=O)NC23CC4CC(CC(C4)C2)C3)cc1
> 100 µM (inactive)
COc1ccc(/C=C2/C(=O)N(/C=C3\C(=O)Oc4ccccc4C3=O)/C(=N/C(C)=O)N2C)cc1OC
> 100 µM (inactive)
